# Tested target: cAMP-dependent protein kinase type II-alpha regulatory subunit (Homo sapiens, UniProt P13861); further: in the data inactive means no Kd found up to 30 µM
# Sequence (P13861 whole entry): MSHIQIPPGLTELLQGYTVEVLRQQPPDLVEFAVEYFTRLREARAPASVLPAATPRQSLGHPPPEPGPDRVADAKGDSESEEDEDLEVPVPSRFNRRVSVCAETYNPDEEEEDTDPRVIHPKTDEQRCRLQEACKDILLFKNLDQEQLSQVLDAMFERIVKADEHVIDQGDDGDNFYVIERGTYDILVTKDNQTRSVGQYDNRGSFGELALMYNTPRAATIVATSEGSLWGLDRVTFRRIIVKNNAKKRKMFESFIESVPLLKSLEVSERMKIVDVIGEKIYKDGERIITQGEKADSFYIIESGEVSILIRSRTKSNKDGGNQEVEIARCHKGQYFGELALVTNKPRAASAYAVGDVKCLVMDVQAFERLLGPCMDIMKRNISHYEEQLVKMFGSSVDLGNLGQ
Activity calls are given as the source filed them.
# key: entry, value: Kd

Solved cases below.
- Mol smiles: "Cc1cc(Nc2ncnc3ccc(NC4=NC(C)(C)CO4)cc23)ccc1Oc1ccn2ncnc2c1"
  Kd: "> 30 µM (inactive)"
- Mol smiles: "COc1c(OCCCN2CCOCC2)ccc2c1N=C(NC(=O)c1cnc(N)nc1)N1CCN=C21"
  Kd: "> 30 µM (inactive)"
- Mol smiles: "CN1CCN(CCOc2cc(OC3CCOCC3)c3c(Nc4c(Cl)ccc5c4OCO5)ncnc3c2)CC1"
  Kd: "> 30 µM (inactive)"
- Mol smiles: "CO[C@H]1C[C@@H]2CC[C@@H](C)[C@@](O)(O2)C(=O)C(=O)N2CCCC[C@H]2C(=O)O[C@H]([C@H](C)C[C@@H]2CC[C@@H](O)[C@H](OC)C2)CC(=O)[C@H](C)/C=C(\\C)[C@@H](O)[C@@H](OC)C(=O)[C@H](C)C[C@H](C)/C=C/C=C/C=C/1C"
  Kd: "> 30 µM (inactive)"

Kindly review the next molecule as well.
## Input Reported Kd for CO[C@H]1C[C@@H]2CC[C@@H](C)[C@@](O)(O2)C(=O)C(=O)N2CCCC[C@H]2C(=O)O[C@H]([C@H](C)C[C@@H]2CC[C@@H](OP(C)(C)=O)[C@H](OC)C2)CC(=O)[C@H](C)/C=C(\C)[C@@H](O)[C@@H](OC)C(=O)[C@H](C)C[C@H](C)/C=C/C=C/C=C/1C : what is it?
## Output > 30 µM (inactive)

# credit: ChEMBL document CHEMBL3991601
